Quick reference: LC retention time of the listed items.
- assay comment: RP, Waters XBridge C18, 50 × 2.1 mm, 3.5 µm, 30 °C, 0.2 mL/min, estimated dead time 0.55 min; A: water + 0.1% formic acid, pH 3; B: methanol + 0.1% formic acid, pH 3; gradient (min/%B) 0/10 4/50 17/95 25/95 25.1/10 30/10
- measurement context: stereoisomer not certain
readout: LC retention time (min)

molecule	readout	number
O=c1[nH]c(Cl)c(Cl)cc1Cl [3,5,6-Trichloro-2-pyridinol]	LC retention time	9.7
CC(C)(Oc1ccc(C(=O)c2ccc(Cl)cc2)cc1)C(=O)O [Fenofibric acid]	LC retention time	12.6
CC(=O)SC1CC2=CC(=O)CCC2(C)C2CCC3(C)C(CCC34CCC(=O)O4)C12 (stereo not drawn) [Spironolactone]	LC retention time	10.2
CC(C)Cc1ccc(C(C)C(=O)O)cc1 (stereo not drawn) [Ibuprofen]	LC retention time	13.6
CNC(C)C(=O)c1ccc(C)cc1 (stereo not drawn) [Mephedrone]	LC retention time	4.3
CCNc1nc(Cl)nc(NCC)n1 [Simazine]	LC retention time	6.9
COC(=O)C(Cc1ccccc1)NC(=O)C(N)CC(=O)O (stereo not drawn) [Aspartame]	LC retention time	4.8
O=C(O)C(F)(F)C(F)(F)C(F)(F)C(F)(F)F [Perfluoropentanoic acid]	LC retention time	7.3
O=C(O)C(F)(F)C(F)(F)C(F)(F)C(F)(F)C(F)(F)C(F)(F)C(F)(F)C(F)(F)F [Perfluorononanoic acid]	LC retention time	13.9
CSc1nnc(C(C)(C)C)c(=O)n1N [Metribuzin]	LC retention time	6.9
CCc1cccc(CC)c1N(COC)C(=O)C(=O)O [Alachlor OXA]	LC retention time	7.4
Nc1c(Cl)c(F)nc(OCC(=O)O)c1Cl [Fluroxypyr]	LC retention time	6.9
N#Cc1c[nH]cc1-c1cccc2c1OC(F)(F)O2 [Fludioxonil]	LC retention time	10.7
Clc1ccccc1C(c1ccccc1)(c1ccccc1)n1ccnc1 [Clotrimazole]	LC retention time	8.8
CC1=CC(=O)NS(=O)(=O)O1 [Acesulfame]	LC retention time	1.5
CCN(CC)C(=O)c1cccc(C)c1 [DEET]	LC retention time	8.6
COc1ccc2cc(C(C)C(=O)O)ccc2c1 (stereo not drawn) [Naproxen]	LC retention time	10.2
COCc1cnc(C2=NC(C)(C(C)C)C(=O)N2)c(C(=O)O)c1 (stereo not drawn) [Imazamox]	LC retention time	5.7
CNC(=O)Nc1ccc(Cl)c(Cl)c1 [Diuron-desmethyl]	LC retention time	8.5
Cc1cccc(Nc2ccccc2C(=O)O)c1C [Mefenamic acid]	LC retention time	14.5
CC(C)N(C(=O)CCl)c1ccccc1 [Propachlor]	LC retention time	8.6
O=C(O)c1cn(C2CC2)c2cc(N3CCNCC3)c(F)cc2c1=O [Ciprofloxacin]	LC retention time	4.5
COC(=O)C(Cc1ccccc1)NC(=O)C(CC(=O)O)NCCC(C)(C)C (stereo not drawn) [Neotame]	LC retention time	9
Cc1cccc(C)c1N(Cn1cccn1)C(=O)CCl [Metazachlor]	LC retention time	8.5
Cc1cc(Cl)ccc1OC(C)C(=O)O (stereo not drawn) [Mecoprop]	LC retention time	10.8
O=C1NCCN1Cc1ccc(Cl)nc1 [Imidacloprid-urea]	LC retention time	4.6
CCN(CC(=O)O)S(=O)(=O)C(F)(F)C(F)(F)C(F)(F)C(F)(F)C(F)(F)C(F)(F)C(F)(F)C(F)(F)F [N-Ethylperfluorooctane sulfonamidoacetic acid]	LC retention time	16.9
COc1ccc(C(CN(C)C)C2(O)CCCCC2)cc1 (stereo not drawn) [Venlafaxine]	LC retention time	6.2
COC(=O)C1C2CC3c4[nH]c5cc(OC)ccc5c4CCN3CC2CC(OC(=O)c2cc(OC)c(OC)c(OC)c2)C1OC (stereo not drawn) [Reserpine]	LC retention time	8.3
CCNc1nc(NC(C)CC)nc(OC)n1 (stereo not drawn) [Secbumeton]	LC retention time	6.7
CC(C1CC1)C(O)(Cn1cncn1)c1ccc(Cl)cc1 (stereo not drawn) [Cyproconazole]	LC retention time	11.5
CC1(C)CC1C(=O)NC(=CCCCCSCC(N)C(=O)O)C(=O)O (stereo not drawn) [Cilastatin]	LC retention time	5.2
c1ccc(CN2CCNCC2)cc1 [1-Benzylpiperazine]	LC retention time	1.2
CN(C)CCC=C1c2ccccc2CCc2ccccc21 [Amitriptyline]	LC retention time	8.6
COc1ccc(C(=CC(=O)N2CCOCC2)c2ccc(Cl)cc2)cc1OC [Dimethomorph]	LC retention time	10.8
Nc1ccc(S(=O)(=O)Nc2ccccn2)cc1 [Sulfapyridine]	LC retention time	2.9
CC(C)Nc1nc(N)nc(Cl)n1 [Atrazine-desethyl]	LC retention time	5.6
NC(=O)Nc1ccc(Cl)c(Cl)c1 [Diuron-desdimethyl]	LC retention time	8.3
